Catalogue of compounds with associated IC50
Target: Sodium-dependent serotonin transporter (Homo sapiens)
Sequence (P31645 whole entry): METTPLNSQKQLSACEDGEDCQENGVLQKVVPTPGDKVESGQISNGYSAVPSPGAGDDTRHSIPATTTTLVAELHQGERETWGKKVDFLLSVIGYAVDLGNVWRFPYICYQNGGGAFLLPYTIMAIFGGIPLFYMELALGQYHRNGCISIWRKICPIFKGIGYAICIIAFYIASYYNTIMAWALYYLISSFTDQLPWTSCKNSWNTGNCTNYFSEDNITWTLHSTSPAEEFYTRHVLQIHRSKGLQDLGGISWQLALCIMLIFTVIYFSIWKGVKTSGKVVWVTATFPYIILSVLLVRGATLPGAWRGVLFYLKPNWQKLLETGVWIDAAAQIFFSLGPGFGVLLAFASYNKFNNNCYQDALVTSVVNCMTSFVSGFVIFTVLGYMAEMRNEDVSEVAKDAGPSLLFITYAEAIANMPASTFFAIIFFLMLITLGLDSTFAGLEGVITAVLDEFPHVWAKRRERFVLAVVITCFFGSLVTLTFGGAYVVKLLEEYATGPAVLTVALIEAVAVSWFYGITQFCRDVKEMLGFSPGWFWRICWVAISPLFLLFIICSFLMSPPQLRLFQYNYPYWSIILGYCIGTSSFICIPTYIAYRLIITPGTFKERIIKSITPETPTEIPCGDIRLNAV
Assay: Inhibition of [3H]serotonin reuptake at human SERT expressed in LLCPK cells by scintillation proximity assay
Format: cell-based
The reply should be a number in nM, with the unit left off.

In the examples that follow, each entry is paired with its recorded IC50.
COMPOUND: COCC[C@H]1[C@]2(C)CNC[C@]12c1ccc(Cl)c(Cl)c1 (relative stereo)
UNIT: nM
IC50: 1.58
//
COMPOUND: Cc1csc(C[C@H]2[C@@H]3CNC[C@@]32c2ccc(Cl)c(Cl)c2)n1 (relative stereo)
UNIT: nM
IC50: 1

Next, consider the following compound.
response.value for CCOC[C@H]1[C@@H]2CNC[C@@]21c1ccc(Cl)c(Cl)c1 (field: IC50) = 1.26

====

Catalogue of molecules with associated Ki
Biological target: Sodium-dependent noradrenaline transporter (Homo sapiens, UniProt P23975)
Sequence (P23975 whole entry): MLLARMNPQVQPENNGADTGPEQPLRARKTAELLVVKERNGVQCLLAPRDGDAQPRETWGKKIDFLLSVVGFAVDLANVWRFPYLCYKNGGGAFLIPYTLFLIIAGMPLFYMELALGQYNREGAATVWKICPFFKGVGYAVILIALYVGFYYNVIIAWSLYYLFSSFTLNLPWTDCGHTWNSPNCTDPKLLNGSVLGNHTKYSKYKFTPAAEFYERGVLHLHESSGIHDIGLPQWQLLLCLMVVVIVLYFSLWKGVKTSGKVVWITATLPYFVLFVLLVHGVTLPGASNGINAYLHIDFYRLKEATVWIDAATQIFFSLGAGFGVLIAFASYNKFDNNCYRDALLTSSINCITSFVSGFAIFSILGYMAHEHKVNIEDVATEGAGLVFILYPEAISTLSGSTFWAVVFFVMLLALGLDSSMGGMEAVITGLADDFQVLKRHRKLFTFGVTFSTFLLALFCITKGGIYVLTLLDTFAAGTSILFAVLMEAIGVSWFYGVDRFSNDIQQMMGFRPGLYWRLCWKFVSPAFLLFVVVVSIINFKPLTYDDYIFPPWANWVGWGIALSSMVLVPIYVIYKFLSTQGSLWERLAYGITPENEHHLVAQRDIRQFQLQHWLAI
Experiment: Displacement of [3H]nisoxetine from human recombinant NET expressed in BacMam virus-transduced cells by scintillation proximity assay
Assay type: cell-based
The reply should be a number in nM, with the unit left off.

In the examples that follow, each entry is paired with its recorded Ki.
MOLECULE: Clc1ccc([C@]23CNC[C@H]2[C@@H]3COCC2CC2)cc1Cl (stereo in doubt)
MEASURED_ON: Sodium-dependent noradrenaline transporter (Homo sapiens, UniProt P23975)
Ki (nM): 1.95
//
MOLECULE: CC(C)OCC[C@]1(c2ccc(Cl)c(Cl)c2)[C@@H]2CNC[C@@H]21
MEASURED_ON: Sodium-dependent noradrenaline transporter (Homo sapiens, UniProt P23975)
Ki (nM): 1.58
//
MOLECULE: Clc1ccc([C@@]2(COC3CCC3)[C@@H]3CNC[C@@H]32)cc1Cl
MEASURED_ON: Sodium-dependent noradrenaline transporter (Homo sapiens, UniProt P23975)
Ki (nM): 2.51

Next, consider the following molecule.
response.value for CCC[C@H]1[C@@H]2CNC[C@]12c1ccc(Cl)c(Cl)c1 (racemic) (field: Ki) = 2

====

Experiment: Bioavailability in rat
Format: ADME, organism-based
Conditions: in vivo
QUANTITY_MEASURED: bioavailability (%)
The reply should be a number in %, with the unit left off.

In the examples that follow, each entry is paired with its recorded bioavailability.
COMPOUND: CCOC[C@H]1[C@@H]2CNC[C@@]21c1ccc(Cl)c(Cl)c1
bioavailability / %: 61
--
COMPOUND: Clc1ccc([C@@]23CNC[C@@H]2[C@H]3COCC2CC2)cc1Cl (stereo in doubt)
bioavailability / %: 32
--
COMPOUND: COC[C@H]1[C@@H]2CNC[C@@]21c1ccc(Cl)c(Cl)c1 (relative stereo)
bioavailability / %: 94

response.value for FC(F)(F)COC[C@H]1[C@@H]2CNC[C@@]21c1ccc(Cl)c(Cl)c1 (field: bioavailability) = 41

response.value for FC(F)(F)COC[C@@H]1[C@H]2CNC[C@]21c1ccc(Cl)c(Cl)c1 (stereo in doubt) (field: bioavailability) = 41

====

Target: UniProtKB Q01959
Experiment: Inhibition of [3H]dopamine reuptake at human DAT expressed in LLCPK cells by scintillation proximity assay
QUANTITY_MEASURED: IC50 (nM)
The reply should be a number in nM, with the unit left off.

MOLECULE: COCC[C@H]1[C@]2(C)CNC[C@]12c1ccc(Cl)c(Cl)c1 (relative stereo)
IC50 (nM): 15.8
//
MOLECULE: Cc1csc(C[C@H]2[C@@H]3CNC[C@@]32c2ccc(Cl)c(Cl)c2)n1 (relative stereo)
IC50 (nM): 20

response.value for CCOC[C@H]1[C@@H]2CNC[C@@]21c1ccc(Cl)c(Cl)c1 (field: IC50) = 5.01

====

Biological target: Voltage-gated inwardly rectifying potassium channel KCNH2 (Homo sapiens, UniProt Q12809)
Sequence (Q12809 whole entry): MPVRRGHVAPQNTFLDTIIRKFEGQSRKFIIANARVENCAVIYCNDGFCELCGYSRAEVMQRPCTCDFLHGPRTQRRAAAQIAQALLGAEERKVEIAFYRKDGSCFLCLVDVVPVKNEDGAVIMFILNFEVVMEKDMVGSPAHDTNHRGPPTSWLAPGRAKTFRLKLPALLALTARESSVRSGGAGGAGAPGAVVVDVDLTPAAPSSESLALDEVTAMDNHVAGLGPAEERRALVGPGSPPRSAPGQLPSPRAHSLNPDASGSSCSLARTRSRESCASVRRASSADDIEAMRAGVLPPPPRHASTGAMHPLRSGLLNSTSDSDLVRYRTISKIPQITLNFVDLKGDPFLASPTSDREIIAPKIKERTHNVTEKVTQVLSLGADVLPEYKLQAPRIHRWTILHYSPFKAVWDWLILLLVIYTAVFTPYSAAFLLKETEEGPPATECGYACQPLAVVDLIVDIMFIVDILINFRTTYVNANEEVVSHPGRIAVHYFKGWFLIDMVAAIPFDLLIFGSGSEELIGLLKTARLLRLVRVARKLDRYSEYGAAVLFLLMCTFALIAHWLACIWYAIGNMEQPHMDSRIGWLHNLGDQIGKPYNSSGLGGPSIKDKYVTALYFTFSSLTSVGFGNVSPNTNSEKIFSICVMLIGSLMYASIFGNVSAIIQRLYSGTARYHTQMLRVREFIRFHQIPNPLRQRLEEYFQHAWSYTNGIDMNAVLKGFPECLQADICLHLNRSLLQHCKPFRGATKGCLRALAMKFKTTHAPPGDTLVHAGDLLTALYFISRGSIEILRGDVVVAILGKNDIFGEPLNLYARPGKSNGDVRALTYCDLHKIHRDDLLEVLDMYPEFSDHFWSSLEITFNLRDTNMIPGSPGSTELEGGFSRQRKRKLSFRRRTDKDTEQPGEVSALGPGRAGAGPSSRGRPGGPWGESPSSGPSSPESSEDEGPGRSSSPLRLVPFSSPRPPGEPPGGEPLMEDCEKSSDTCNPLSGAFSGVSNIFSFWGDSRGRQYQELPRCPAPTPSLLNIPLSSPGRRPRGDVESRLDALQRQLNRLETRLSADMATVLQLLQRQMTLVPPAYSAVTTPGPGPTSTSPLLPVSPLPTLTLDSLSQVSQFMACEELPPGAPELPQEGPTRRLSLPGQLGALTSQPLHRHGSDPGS
QUANTITY_MEASURED: pKi
# pKi is unitless: minus log10 of the molar concentration; print number only

response.value for CCOC[C@H]1[C@@H]2CNC[C@@]21c1ccc(Cl)c(Cl)c1 (field: pKi) = 4.90

====

Molecular target: Sodium-dependent dopamine transporter (Homo sapiens, UniProt Q01959)
Sequence (Q01959 whole entry): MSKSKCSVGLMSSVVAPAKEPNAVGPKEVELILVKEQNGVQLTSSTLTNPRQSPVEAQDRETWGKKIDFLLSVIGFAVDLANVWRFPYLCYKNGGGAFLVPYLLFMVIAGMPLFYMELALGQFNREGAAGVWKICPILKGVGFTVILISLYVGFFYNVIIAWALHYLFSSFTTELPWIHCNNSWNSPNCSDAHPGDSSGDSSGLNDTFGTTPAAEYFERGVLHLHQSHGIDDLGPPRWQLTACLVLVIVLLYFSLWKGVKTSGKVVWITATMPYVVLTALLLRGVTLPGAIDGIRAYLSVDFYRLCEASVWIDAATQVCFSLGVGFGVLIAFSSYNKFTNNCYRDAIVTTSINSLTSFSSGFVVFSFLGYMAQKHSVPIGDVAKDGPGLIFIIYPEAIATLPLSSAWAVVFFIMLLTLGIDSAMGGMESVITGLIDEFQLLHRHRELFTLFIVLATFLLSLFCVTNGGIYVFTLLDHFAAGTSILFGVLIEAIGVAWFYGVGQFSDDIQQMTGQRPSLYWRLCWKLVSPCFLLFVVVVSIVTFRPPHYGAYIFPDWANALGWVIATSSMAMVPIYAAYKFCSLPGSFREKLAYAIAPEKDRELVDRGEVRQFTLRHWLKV
Test: Displacement of [N-methyl-3H]WIN-35428 from human recombinant DAT expressed in LLCPK cells by liquid scintillation counting
Type: cell-based
QUANTITY_MEASURED: Ki
# answer = value followed by unit

response.value for COC[C@H]1[C@@H]2CNC[C@@]21c1ccc(Cl)c(Cl)c1 (relative stereo) (field: Ki) = 85.1 nM

====

Catalogue of compounds with associated clearance
Test: Blood clearance in rat
Type: ADME, organism-based
# answer = value followed by unit

COMPOUND: COC[C@H]1[C@@H]2CNC[C@@]21c1ccc(Cl)c(Cl)c1 (relative stereo)
clearance: 16 mL/min/kg

COMPOUND: CCOC[C@H]1[C@@H]2CNC[C@@]21c1ccc(Cl)c(Cl)c1
clearance: 18 mL/min/kg

response.value for Clc1ccc([C@@]23CNC[C@@H]2[C@H]3COCC2CC2)cc1Cl (stereo in doubt) (field: clearance) = 72 mL/min/kg

response.value for FC(F)(F)COC[C@@H]1[C@H]2CNC[C@]21c1ccc(Cl)c(Cl)c1 (stereo in doubt) (field: clearance) = 42 mL/min/kg

response.value for FC(F)(F)COC[C@H]1[C@@H]2CNC[C@@]21c1ccc(Cl)c(Cl)c1 (field: clearance) = 42 mL/min/kg

====

Molecular target: Sodium-dependent serotonin transporter (Homo sapiens)
Assay: Displacement of [3H]citalopram from human recombinant SERT expressed in LLCPK cells by liquid scintillation counting
Assay type: cell-based
QUANTITY_MEASURED: pKi
# pKi is unitless: minus log10 of the molar concentration; print number only

response.value for COC[C@H]1[C@@H]2CNC[C@@]21c1ccc(Cl)c(Cl)c1 (relative stereo) (field: pKi) = 9.13

====

Biological target: Sodium-dependent serotonin transporter (Homo sapiens)
Assay: Displacement of [3H]citalopram from human recombinant SERT expressed in BacMam virus-transduced cells by scintillation proximity assay
Assay type: cell-based
QUANTITY_MEASURED: Ki (nM)
The reply should be a number in nM, with the unit left off.

In the examples that follow, each entry is paired with its recorded Ki.
MOLECULE: COCC[C@H]1[C@@]2(c3ccc(Cl)c(Cl)c3)CNC[C@]12C (relative stereo)
MEASURED_ON: Sodium-dependent serotonin transporter (Homo sapiens)
UNIT: nM
TEST_VALUE: 31.6
//
MOLECULE: Clc1ccc([C@@]2(CCOC3CCC3)[C@@H]3CNC[C@@H]32)cc1Cl
MEASURED_ON: Sodium-dependent serotonin transporter (Homo sapiens)
UNIT: nM
TEST_VALUE: 0.2
//
MOLECULE: CSC[C@@H]1[C@H]2CNC[C@]21c1ccc(Cl)c(Cl)c1 (stereo in doubt)
MEASURED_ON: Sodium-dependent serotonin transporter (Homo sapiens)
UNIT: nM
TEST_VALUE: 25.1

Next, consider the following molecule.
response.value for OC[C@H]1[C@@H]2CNC[C@]12c1ccc(Cl)c(Cl)c1 (racemic) (field: Ki) = 15.5

====

Biological target: Sodium-dependent dopamine transporter (Homo sapiens)
Assay: Displacement of [3H]WIN-35428 from human recombinant DAT expressed in BacMam virus-transduced cells by scintillation proximity assay
Assay type: cell-based
QUANTITY_MEASURED: Ki (nM)
The reply should be a number in nM, with the unit left off.

COMPOUND: CCOC[C@H]1[C@@H]2CNC[C@@]21c1ccc(Cl)c(Cl)c1
MEASURED_ON: Sodium-dependent dopamine transporter (Homo sapiens)
TEST_VALUE: 7.94

COMPOUND: CCOC[C@H]1[C@@H]2CNC[C@@]21c1ccc(Cl)c(Cl)c1 (relative stereo)
MEASURED_ON: Sodium-dependent dopamine transporter (Homo sapiens)
TEST_VALUE: 25.1

COMPOUND: Clc1ccc([C@]23CNC[C@H]2[C@@H]3COC2CCCC2)cc1Cl (stereo in doubt)
MEASURED_ON: Sodium-dependent dopamine transporter (Homo sapiens)
TEST_VALUE: 6.31

COMPOUND: Clc1ccc([C@@]23CNC[C@@H]2[C@H]3COCC2CC2)cc1Cl (stereo in doubt)
MEASURED_ON: Sodium-dependent dopamine transporter (Homo sapiens)
TEST_VALUE: 12.6

COMPOUND: COC[C@H]1[C@@H]2CNC[C@@]21c1ccc2ccccc2c1 (stereo in doubt)
MEASURED_ON: Sodium-dependent dopamine transporter (Homo sapiens)
TEST_VALUE: 50.1

Next, consider the following compound.
response.value for Clc1ccc([C@]23CNC[C@H]2[C@@H]3COC2CCCCC2)cc1Cl (racemic) (field: Ki) = 20

====

Target: Sodium-dependent noradrenaline transporter (Homo sapiens)
Assay: Displacement of [3H]nisoxetine from human recombinant NET expressed in BacMam virus-transduced cells by scintillation proximity assay
Assay type: cell-based
Catalogue of compounds with associated pKi
# pKi is unitless: minus log10 of the molar concentration; print number only

response.value for COC[C@@H]1[C@H]2CNC[C@]21c1ccc2ccccc2c1 (stereo in doubt) (field: pKi) = 9.20

response.value for COC[C@@H]1[C@H]2CNC[C@]21c1ccc(Cl)c(Cl)c1 (stereo in doubt) (field: pKi) = 6.65

response.value for CCCOC[C@@H]1[C@H]2CNC[C@]21c1ccc(Cl)c(Cl)c1 (stereo in doubt) (field: pKi) = 9.20

response.value for CCOC[C@H]1[C@@H]2CNC[C@@]21c1ccc(Cl)c(Cl)c1 (relative stereo) (field: pKi) = 8.80
